test system: PPARg:RXRa 30nM:10nM, anti-RXR (NR concentration 30 nM, RXRa partner concentration 10 nM); test: PBM binding z-score (relative to random genomic background probes); higher = stronger binding; sequences stand for … in GC…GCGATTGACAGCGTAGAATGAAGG
# thresholds on PBM binding z-score define classes: lo: < 0.9; mid: ≥ 0.9 and < 3; hi: ≥ 3

1) CCTCGGAGGACAGAAGGTCAGAGCTGTCCGCTTT
lo
2) ACTAGCAGGCCAAGTTGGGGTCACTCAAACAAAG
lo
3) CCTTACGGGTCACTGACAGGTTGTAGCATTTGGA
mid
4) TCTTGTAGACCAACAGGAGGTTAAGAAAGATCGA
mid
5) CGAACTAGGTCACAACAGGACAGTGAAGGATGAT
hi
6) CCGACTGGGCCATCAGGTCATTGATATCAACGTT
lo
7) TCATATAGGTAAATGCTAGGTGACAGTCCGATCT
hi
8) AGTCAAAGTTCACTTGGTAACGTAAGATTCAGCT
mid
9) TCTAGTTTGTCACGGAGGTCACACACGACGGGTA
hi
